Please respond with reported IC50 for every item in the list.
Biological target: NS3 (Hepatitis C virus, UniProt A3EZJ3)
Sequence (A3EZJ3 whole entry): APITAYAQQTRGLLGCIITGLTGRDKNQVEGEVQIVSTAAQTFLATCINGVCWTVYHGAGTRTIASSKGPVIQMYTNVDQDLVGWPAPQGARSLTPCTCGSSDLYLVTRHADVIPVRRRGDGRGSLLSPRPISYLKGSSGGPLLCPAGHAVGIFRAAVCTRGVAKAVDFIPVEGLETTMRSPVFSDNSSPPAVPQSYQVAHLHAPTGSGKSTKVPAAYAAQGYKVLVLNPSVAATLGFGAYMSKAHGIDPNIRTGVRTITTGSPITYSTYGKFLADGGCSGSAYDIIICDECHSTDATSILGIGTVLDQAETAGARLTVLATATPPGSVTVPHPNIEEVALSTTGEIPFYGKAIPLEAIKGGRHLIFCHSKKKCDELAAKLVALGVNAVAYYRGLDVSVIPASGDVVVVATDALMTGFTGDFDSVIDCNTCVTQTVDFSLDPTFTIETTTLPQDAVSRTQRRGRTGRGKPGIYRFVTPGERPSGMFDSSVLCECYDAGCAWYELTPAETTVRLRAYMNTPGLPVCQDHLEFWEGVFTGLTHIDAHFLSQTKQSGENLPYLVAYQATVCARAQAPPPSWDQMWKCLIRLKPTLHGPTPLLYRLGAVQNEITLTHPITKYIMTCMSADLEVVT
Starred links: 1 amine or outer side, 2 acyl side, 3 side chain; linkers in the order of their positions; H or OH if unused. Non-standard residues stand in square brackets, D forms with d. Residues, ends and D or L forms follow the SMILES beside them. Pen = CC(C)(S)[C@H](N)C(=O)O; Suc = O=C(CCC(=O)[*:2])[*:1]; Tle = CC(C)(C)[C@H](N)C(=O)O
One number for each entry, in µM.

Some entries whose results are on file:
CC[C@H](C)[C@H](NC(=O)[C@H](CC(=O)O)NC(=O)[C@H](C)NC(C)=O)C(=O)N[C@H](C(=O)N1CCC[C@H]1C(=O)N[C@@H](CS)C(=O)O)C(C)C | 200
CC[C@H](C)[C@H](NC(=O)[C@H](CC(=O)O)NC(=O)[C@H](CC(=O)O)NC(C)=O)C(=O)N[C@H](C(=O)N1CCC[C@H]1C(=O)N[C@H](C(=O)O)C(C)(C)S)C(C)C (Ac-DDIVP[Pen]-OH) | 630

For every item below, please supply its IC50.
1. CC[C@H](C)[C@H](NC(=O)C(NC(=O)[C@H](CC(=O)O)NC(C)=O)C(C)C)C(=O)N[C@H](C(=O)N1CCC[C@H]1C(=O)N[C@@H](CS)C(=O)O)C(C)C (single isomer, unassigned)
2. CC[C@H](C)[C@H](NC(=O)[C@H](CC(=O)O)NC(=O)[C@H](CC(=O)O)NC(C)=O)C(=O)N[C@H](C(=O)N1CCC[C@H]1C(=O)N[C@@H](CS)C(=O)O)C(C)C
3. CC[C@H](C)[C@H](NC(=O)[C@H](CC(=O)O)NC(=O)CCC(=O)O)C(=O)N[C@H](C(=O)N1CCC[C@H]1C(=O)N[C@@H](CS)C(=O)O)C(C)C
4. CC[C@H](C)[C@H](NC(=O)[C@H](CC(=O)O)NC(=O)[C@H](CC(=O)O)NC(C)=O)C(=O)N[C@H](C(=O)N1CCC[C@H]1C(=O)N[C@@H](CSC)C(=O)O)C(C)C (Ac-DDIVPC(Me)-OH)

Key:
7.5
28
33
160

Please state, for each entry, its recorded IC50.
1. CC[C@H](C)[C@H](NC(=O)[C@@H](NC(=O)[C@H](CC(=O)O)NC(C)=O)C(C)(C)C)C(=O)N[C@H](C(=O)N1CCC[C@H]1C(=O)N[C@@H](CS)C(=O)O)C(C)C (Ac-D[Tle]IVPC-OH)
2. CC[C@H](C)[C@H](NC(=O)CCC(=O)O)C(=O)N[C@H](C(=O)N1CCC[C@H]1C(=O)N[C@@H](CS)C(=O)O)C(C)C (Suc-IVPC-OH)

Key:
1: 20; 2: 830

Exercise: Data request, read-out IC50, for CC[C@H](C)[C@H](NC(=O)C(CC(=O)O)NC(=O)[C@H](CC(=O)O)NC(C)=O)C(=O)N[C@H](C(=O)N1CCC[C@H]1C(=O)N[C@@H](CS)C(=O)O)C(C)C (single isomer, unassigned)
Key: 4
